- experimental target: DOR (Homo sapiens, UniProt P41143)
- Sequence (P41143 whole entry): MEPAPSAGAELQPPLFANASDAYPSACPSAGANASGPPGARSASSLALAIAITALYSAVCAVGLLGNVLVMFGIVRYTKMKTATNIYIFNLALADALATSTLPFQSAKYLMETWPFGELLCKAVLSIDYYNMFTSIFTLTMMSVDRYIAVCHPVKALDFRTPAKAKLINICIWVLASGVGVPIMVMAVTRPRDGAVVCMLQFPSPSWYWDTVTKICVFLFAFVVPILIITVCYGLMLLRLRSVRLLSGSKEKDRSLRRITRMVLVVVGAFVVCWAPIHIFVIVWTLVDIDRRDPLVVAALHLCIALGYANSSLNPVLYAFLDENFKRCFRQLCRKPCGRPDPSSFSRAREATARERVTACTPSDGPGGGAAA
- experiment: Calcium mobilization assay, antagonism of DPDPE at DOR
Bridge positions count the residues as written; N and C are the ends. Square brackets hold non-standard residues; d marks the D form. Peptide text beside a SMILES is read from it. d2Nal = N[C@H](Cc1ccc2ccccc2c1)C(=O)O; Dmt = Cc1cc(O)cc(C)c1C[C@H](N)C(=O)O; Tic = O=C(O)[C@@H]1Cc2ccccc2CN1; dDap = NC[C@@H](N)C(=O)O
observation type: Kb (nM)
A number alone suffices; assume nM.

Illustrative cases are given below, each with its answer.
compound: Cc1cc(O)cc(C)c1C[C@H](N)C(=O)N1Cc2ccccc2C[C@H]1C(=O)N[C@@H]1CCCCNC(=O)C[C@@H](C(N)=O)NC(=O)[C@@H](Cc2ccc3ccccc3c2)NC(=O)[C@H](Cc2ccccc2)NC1=O [compound 2, Dmt-Tic-c[D-Lys-Phe-D-2Nal-Asp]NH2] (H-[Dmt][Tic][dK]F[d2Nal]D-NH2; lactam 3-6)
experimental target: DOR (Homo sapiens, UniProt P41143)
readout value: 28.2
//
compound: Cc1cc(O)cc(C)c1C[C@H](N)C(=O)N1Cc2ccccc2C[C@H]1C(=O)N[C@@H]1CNC(=O)C[C@@H](C(N)=O)NC(=O)[C@H](Cc2ccccc2)NC(=O)[C@H](Cc2ccccc2)NC1=O [compound 4, Dmt-Tic-c[D-Dap-Phe-Phe-Asp]NH2] (H-[Dmt][Tic][dDap]FFD-NH2; lactam 3-6)
experimental target: DOR (Homo sapiens, UniProt P41143)
readout value: 2.45

Prompt line: // map Cc1cc(O)cc(C)c1C[C@H](N)C(=O)N1Cc2ccccc2C[C@H]1C(=O)N[C@@H]1CCCCNC(=O)C[C@@H](C(N)=O)NC(=O)[C@H](Cc2ccccc2)NC(=O)[C@H](Cc2ccccc2)NC1=O [compound 1, Dmt-Tic-c[D-Lys-Phe-Phe-Asp]NH2] (H-[Dmt][Tic][dK]FFD-NH2; lactam 3-6) to recorded Kb (system: DOR (Homo sapiens, UniProt P41143))
Response line: 42.7
